Protocol Summary: label from the status in PepcDB records;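 also: failed if final PepcDB status was selected cloned or expressed and not failed if soluble or beyond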
Quantity: protein production

sequence `MSEKPLISVLMPNYNSEKYLNEAIESILNQTYENFEFIILDDCSTDNSWKIIQEYAKKDKRINIFRNEKNLGRPKTYNRLLNMISNESFFFFFMGSDDVVKENMINIKLNYFNNFEEIDGIGNSIEYVDENLNFIKKREYPLTDRDIRKNFLIFNPISQGGMCLKSNLKNETFNEKYKVCLDYEIWTRLIDKGYTFENLKESLYLYRQQREQAKQKNLKMTLVNTVKIKSKYLFRPQYFSINAFLRFNLEILLLMLPKKLILWVFYKSL` , protein production observed: failed

The reported protein production of the sequence `MNNFVSELQSYFASKYPFLSANIPRQQQLLGDSWSQEFDGELIKHFGTIEELRTAADGYAKFAMDSLLLTAKFQKTKDYDNKTYAECASEVYQSESYMHSLYLPGILLSHYLWKHHYAMYQFYKSIVVPVLPKSGLFIDVGVGTGFYSRNLLRDSQMTGIGCDMSPHSLSYTRSTLSKFGTVDKYSFCLCDYYHFNQYFQSTADFILSIEVLEHLEDPMKMLESLYKSLKPGGLGLISAAVNAPNADHIYLYRSCEDVRHQLIKAGFEIRHDTCDEAYEARTIGEVVPVNYGALVCKPS` was failed

protein production in this record for `MTISEVSKKYELSADTLRYYERIGLIPPVNRNKSGIRSFTEEDCEWVNFIKCMRGAGLSIETLIEYVAMFQQGSSTIKARKELLIEQRNQLAKRIEEMQKTLERLNFKIDRYEEGIIEKEKVLKSSRNKKMEAVS` : failed

###

Protocol Summary: label from the status in PepcDB records
Quantity: protein production

Quick note, protein production for `TPLLAILFIAQVSGSGRRVGVVGWPDLNYAGVLGYGGCYERIFAVPQQERTSLRVVTALAHGCDLVITRAGPTPRTYTPLQTQRFRNSLRSDAGCVIMMGDHVVSPAARLASAVVGYHGIGKGTGRIKAVEITVTGIAKGFYRTSRVIVGKHIAPAAEKTTMK` landed at failed

For record `HQPNIIPYHKGFYRAFSKLHTTTFKYQAQSPQDIIDSLDDHHHLFLFVSEGLLKGYLYLEIDSQQSIAEIKYFSSHVDYRLKGIAFELLAYALQYAFDNFDIRKVYFKIRNKNNKLIERFNGLGFHINYEYIKFKFESRNVKDQTIPE` the listed protein production is failed

For this sequence ( `MASQQEKKQLDERAKKGETVVPGGTGGKSFEAQQHLAEGRSRGGQTRKEQLGTEGYQQMGRKGGLSTGDKPGGEHAEEEGVEIDESKFRTKT` ), measured protein production is failed

Record `MGSVVHAEITEIKPFELRVNFGNSFRGRIHITEVLVNDASTSDEPFAKFRVGQSISARVVAKPCHTDIKKTQLWELSVKP` , field protein production: not failed

Pending sequence:
Measured protein production of `MGENVLICLCGSVNSINISHYIIELKSKFDEVNVIASTNGRKFINGEILKQFCDNYYDEFEDPFLNHVDIANKHDKIIILPATSNTINKIANGICDNLLLTICHTAFEKLSIFPNMNLRMWENPVTQNNIRLLKDYGVSIYPANISESYELASKTFKKNVVAPEPYKVLEFI` : not failed

###

Protocol Summary: label from the status in PepcDB records
Quantity: protein production

Documented protein production of `SAATMKKAAAEDVNVTFEDQQKINKFARNTSRITELKEEIEVKKKQLQNLEDACDDIMLADDDCLMIPYQIGDVFISHSQEETQEMLEEAKKNLQEEIDALESRVESIQRVLADLKVQLYAKFGSNINLEADES` : failed

get_value(item= `DRTAILGGTFTPIHNGHRALLHKAFQTASHDGSGDGHVIVGLTSPELATETRSDPTHVKQLGAYDDRRSALASELDQLGEPYTATYEIVRLDDTQGPAATRADVDALVASPEAKAQRRAYELNQQRRESGLHPLEIHTPPFVVAEDGTRISSTRIRNGEIDVHGRLLD` , readout=protein production) returns failed

Looking up `MVTLEYNANSKLITASDAVVALSTETNIDQINVLTTSLIGETNPNFTPQPNEALSKMIKGLFESGMKNLQQKKLNEALKNVSLAIEMAQRKRAPWEAFAIQLPELHFMLRSKIDLCLILGKHLEALQDLDFLLGTGLIQPDVFVRKADCLLKLRQWEEARATCERGLALAPEDMKLRALLIETARNLAEYNGE` , I see its protein production listed as failed

###

Protocol Summary: label from the status in PepcDB records
Quantity: protein production

Example results:
protein production for `MQVRTLTPDDLPQACALCMDAFMQAVAPTLSAQGIETFTQVSAPQAFAERMQGDNLMLACFVEGAIAGLIELKEGRHIAMLFIAPGLQRQGIGKRLMNAALEHASAEVVTVKASLSSVPAYQRYGFTLAGDVGEFAGLVYQPMEKRLPTQPALEHHHHHH` is not failed

Just so you know, measured protein production for `MSQQKSDFADDADIDESLDELASEETIEETVENLEANGFEVIVVNSADDALAELQSLIPAEASVMNGHSTTLEEIGFDEYLSDGDHGWESLPEEIWSIDDDAKRQAARRESQTADYFLGGINGISQTGELVAADRSGSRIGAYPFAASNVVIVSGVNKIVPTLEDALDRLETVAYPLENERAKEAYGVDSAIAKQLILRQELEEGRTTVVLIREHLGYLEHHHHHH` came out at not failed

Lookup result for `MTQTDRPCLAALVILILLQLIMLFSLFAGVPPHPPIATPLFGIGPFIGASVSAAIAAIVLGESRAARVLALLAVLGALVSFGPQKYLDPQFPLIWPAVIAAQLAAITVLVRLLPALSRQDA` ; measured protein production: failed

Reported protein production ( `MLDPATIVAVPAPGRACGPCTLCCKVYDVPAVESPAGRWCRHVRSGGGCGIHAERPDHCRAFHCLWMTETWIGPEWRPDRAKMVLSLDPVTRFLNVQVDPGQAGAWKRAPYHDQLRRWAAASLPLQRYVLVHVNKVTTVVLPDRDVALGTFGPGDRLVGRERMTPAGMTADVEKVSQLA` ) = failed

The reported value for `MGVATMVTDKYQKCIDACNRCSQACYECFKACLNEPDVNARRTCISILFECAQMCQMSSALMSMDAQFAIDHCKLCSVICDKCAQECSMFQDPHCQKCANECRTCSNECRMMSGMLEHHHHHH` in terms of protein production is not failed

The sequence listed as `MSLKAVIFDLDGVITDTAEYHFLAWKHIAEQIDIPFDRDMNERLKGISREESLESILIFGGAETKYTNAEKQELMHRKNRDYQMLISKLTPEDLLPGIGRLLCQLKNENIKIGLASSSRNAPKILRRLAIIDDFHAIVDPTTLAKGKPDPDIFLTAAAMLDVSPADCAAIEDAEAGISAIKSAGMFAVGVGQGQPMLGADLVVRQTSDLTLELLHEEWEQYRIRESEGHHHHHH` shows protein production equal to not failed

Next sequence, please.
The sequence listed as `MTAENSATPDYRRNVGAVADALLAHPGPIVVLSHENPDGDALGSVLGLSRALRTLGKTVLAPMTVPHYLSFLPQPGELTAPLESWPQGALAAVLDVDNNDPVRVAGADLTQFDGPVVNVDHHGTNLRRADAGVVDPSKPAAAMMVADVIDALGAPWSEAVATPLMLGLNTDTGNFAFDSVSAETFECAARLRAHGARIGWLNDQMRQNPQSYYLLLREVLGKLEFLHGGRVVQTRVDEEMLARAGATWEQVENYVSMLRNAEGAQLAVMAKDYGDRVKFSLRSRGPVSAQNIAVALGGGGHVPAAGATVISSYAEARARLDAAIEAELARVDAQATAE` has a reported protein production of failed

###

Protocol Summary: label from the status in PepcDB records
Quantity: protein production

Entry `KNVNNAEEYWDVIDLRVYPGKNGYFELYDDDGITYEYEKGKYYIIPITWDEDKQELTIGKKRGELEMSKKIIKIIWVEKGKGIEHTKPDVEIEYNGKETITVKRG` ; protein production = failed

Input `MISTWHKNNNSPRLTVSARIVAKRQNTTYHNQPNAGDTSGAHGYHTTSSTTYYVTFQVESGDRIEMSVSGSEYGKLTEGDEGKLTFQGTRYLQFNMENLEHHHHHH` . Output protein production: failed

The recorded protein production for entry `MKTTFLSLCFLLFFPLTGYSWQTAVTHISFHDLQRHRQLDSIIYYPTADQGETQLLSDTAVFRGISVLPNAPLAEGKFPLVVLSHGSGGNNTSLAWLADKLVQQGMVVVAANHPGSTTGDSIPAQSAQLWLQTEDISFIISTLLSDPRWKSALDEQAIGVIGHSKGGYSAIATLGATLSRPHFIASCQQQPEQPNCQFYTHAGVTLDQLSAEKFEGNYADKRLRFAIALDPGMVPFYQKSSLLHLSAPLLLINADYFISPNESLNLGGATWVKQLNQPGITAVTLTKSGHFDFLPLCKPAAGAILAEEGEAFICATPAVEREKLHQQTVQQILTYLQ` equals failed

Just so you know, measured protein production for `MFIPQIVPIRDLKNTSAISNLCHKTNEPIFITKNGYGDMVIMSMETYEGNAFFNNLYGNLEEAEMDLQNGRVSGIDEAIEEIKSRYDL` came out at failed
